Attribution: patent US20100047245A1

target: recombinant purified human IL-12 p70 (human) (UniProt P29459); test: cell-based or functional assay
Sequence (chain, as listed by the source, form in doubt, chain 1 of 2): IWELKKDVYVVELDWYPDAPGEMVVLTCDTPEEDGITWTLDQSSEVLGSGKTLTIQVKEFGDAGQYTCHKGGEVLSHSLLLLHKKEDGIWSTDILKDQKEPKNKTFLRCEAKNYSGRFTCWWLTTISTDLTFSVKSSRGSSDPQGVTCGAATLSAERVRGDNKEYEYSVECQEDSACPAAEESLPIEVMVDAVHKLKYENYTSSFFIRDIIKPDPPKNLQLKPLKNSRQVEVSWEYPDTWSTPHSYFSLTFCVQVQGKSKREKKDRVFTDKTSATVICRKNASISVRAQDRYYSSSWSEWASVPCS
Sequence (P29459 23-219, form in doubt, chain 2 of 2): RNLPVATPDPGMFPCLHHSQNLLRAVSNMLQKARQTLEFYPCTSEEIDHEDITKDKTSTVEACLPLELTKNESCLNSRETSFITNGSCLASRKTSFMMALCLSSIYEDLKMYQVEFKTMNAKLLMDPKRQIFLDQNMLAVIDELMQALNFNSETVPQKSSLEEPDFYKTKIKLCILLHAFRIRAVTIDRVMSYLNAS
Listing: Average IC50 (nM) Human IL-12; PHA blast IFN-gamma induction assay of selected binders
Lab book: enter the figure in nM, no units written.

1H6 (antibody, V domains shown) VH: EVKLVESGGGLVQPGGSRKLSCAASGFTFSDYGMVWVRQAPGKGLEWVAYISSGSSTIHYADTMKGRFTISRDNPKNTLFLQMSSLRSEDTAMYYCARRHYYAMDYWGQGTSVTVSS VL: SFVMTQTPKFLLVSAGDRVTITCKASQSVSNDVAWYQQKPGQSPKLLIYYASNRYTGVPDRFTGTGYGTDFTFTISTVQAEDLAVYFCQQDYTSPFTFGSGTKLEIKR: 0.69
4B4 (antibody, V domains shown) VH: QVTLKESGPGILKPSQTLSLTCSLSGFSLSTSGMGVSWIRQPSGKGLEWLAHIWWDGDSYSNPSLRSRLTISRDTSRNQVFLRIATVDTADTATYYCARRTRVNYAMDYWGQGTSVTVSS VL: SVVMTQTPKFLLVSAGDRVTMTCKASQSVSNDVAWFQQKPGQSPKLLIYYASNRYTGVPDRFTGSGYGTDFTFTISTVQAEDLAVYFCQQDYNSPWTFGGGTKLEIKR: 0.039
1D4 (antibody, V domains shown) VH: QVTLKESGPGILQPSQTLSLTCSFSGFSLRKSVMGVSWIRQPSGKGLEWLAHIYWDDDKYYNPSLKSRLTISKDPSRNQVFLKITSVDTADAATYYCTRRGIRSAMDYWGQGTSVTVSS VL: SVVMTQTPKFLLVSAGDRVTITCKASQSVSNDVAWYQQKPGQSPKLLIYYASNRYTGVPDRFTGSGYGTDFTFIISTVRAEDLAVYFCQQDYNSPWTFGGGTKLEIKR: 0.031

Kindly consider the entry below.
Which Average IC50 (nM) Human IL-12; PHA blast IFN-gamma induction assay reading was recorded for the binder 1A6 (antibody, V domains shown) VH: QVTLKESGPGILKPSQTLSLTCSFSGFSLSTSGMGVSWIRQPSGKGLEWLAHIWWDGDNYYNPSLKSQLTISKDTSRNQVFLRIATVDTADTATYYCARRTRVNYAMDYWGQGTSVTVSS VL: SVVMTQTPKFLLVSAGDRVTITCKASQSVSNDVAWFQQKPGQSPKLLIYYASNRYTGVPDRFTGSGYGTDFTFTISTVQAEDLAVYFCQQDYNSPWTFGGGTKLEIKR ?
0.052
